Reference for the values: patent US12590062B2

experimental-system: PD-L1 (Homo sapiens)
Construct: determine if they can specifically dimerize the extracellular domains of PD-L1
Sequence (Q9NZQ7 19-238 limits assumed): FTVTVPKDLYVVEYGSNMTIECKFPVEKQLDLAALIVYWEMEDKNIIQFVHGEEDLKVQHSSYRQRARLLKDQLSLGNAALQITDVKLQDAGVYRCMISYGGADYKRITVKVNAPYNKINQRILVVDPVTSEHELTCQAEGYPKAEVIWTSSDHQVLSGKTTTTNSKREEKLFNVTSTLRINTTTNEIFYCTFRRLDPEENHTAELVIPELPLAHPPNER
Sequence (Q9NZQ7 19-238 limits assumed): as above
test-method-notes: PD-L1/PD-L1 dimerization biochemical protein-protein interaction assay (ALPHA)
Assay type: binding
experimental-context: compound-induced PD-L1 dimerization, head prints '1 nM' (0.5 nM His-tagged PD-L1 and 0.5 nM FLAG-tagged PD-L1), read-out: AC50 PDL1 Dimer Alpha 1 nM
property-name: AC50

Completed entries (count: 2):
COc1nc(-c2cccc(-c3cccc(-c4ccc5ncc(CNC[C@@H](O)CC(=O)O)n5c4)c3Cl)c2Cl)ccc1CNC[C@@H](O)CC(=O)O [Example 621]
≥ 10 µM
COc1nc(OCc2cccc(-c3cccc(COc4nc(OC)c(CNCCC(=O)O)cc4Cl)c3C)c2C)c(Cl)cc1CNCCC(=O)O [Example 172]
≥ 10 µM

Incoming: Which AC50 is listed for COc1nc(-c2cccc(-c3cccc(-c4ccc5ncc(CNC[C@@H]6CCC(=O)N6)n5c4)c3Cl)c2Cl)ccc1CNC[C@@H]1CCC(=O)N1 [Example 622] ?
Outgoing: ≥ 10 µM

###

experimental-system: PD-1/PD-L1 interaction (Homo sapiens)
Construct: expressed in transfected cells; host or cells: CHO cells (aAPC-PD-L1) co-cultured with Jurkat cells overexpressing PD-1 and an NFAT-luciferase reporter
test-method-notes: PD-1/PD-L1 NFAT reporter co-culture assay
Type: cell-based
experimental-context: Jurkat PD-1 NFAT-luciferase cells co-cultured with aAPC-PD-L1 CHO cells, 6 hrs at 37° C.; read-out: EC50 NFAT Luciferase
pEC50: −log10 of the molar value.
property-name: pEC50

Completed entries (count: 3):
Cn1cc(CN2CC3(CCC(=O)N3)C2)c2ncc(-c3cccc(-c4cccc(-c5cnc6c(CN7CC8(CCC(=O)N8)C7)cn(C)c6n5)c4Cl)c3Cl)nc21 [Example 589]
7.05
COc1cc(COc2cccc(-c3cccc(COc4cc(OCc5cncc(C#N)c5)c(CNC[C@@H](O)CC(=O)O)cc4Cl)c3C)c2C)c(Cl)cc1CNC[C@@H](O)CC(=O)O [Example 389]
6.51
Cc1c(COc2cc(OCc3cncc(C#N)c3)c(CNCc3ncc[nH]3)cc2Br)cccc1-c1cccc(COc2cc(OCc3cncc(C#N)c3)c(CNCc3ncc[nH]3)cc2Br)c1C [Example 261]
5.50

a. Cc1c(COc2cc(OCc3cncc(C#N)c3)c(CN[C@@](C)(CO)C(=O)O)cc2Cl)cccc1-c1cccc(COc2cc(OCc3cncc(C#N)c3)c(CN[C@@](C)(CO)C(=O)O)cc2Cl)c1Br [Example 481]
b. N#Cc1cncc(COc2nc(O[C@H]3CCc4c(-c5cccc6c5CC[C@@H]6Oc5nc(OCc6cncc(C#N)c6)c(CNCCO)cc5Br)cccc43)c(Br)cc2CNCCO)c1 [Example 751]
Incoming: // max by pEC50 over [ a , b ] // respond with label for picked entry
Outgoing: a
(a: 6.81, b: 6.45)

###

experimental-system: PD-1/PD-L1 interaction (Homo sapiens, UniProt Q9NZQ7)
Construct: expressed in transfected cells; host or cells: CHO cells (aAPC-PD-L1) co-cultured with Jurkat cells overexpressing PD-1 and an NFAT-luciferase reporter
Sequence (Q9NZQ7 19-290): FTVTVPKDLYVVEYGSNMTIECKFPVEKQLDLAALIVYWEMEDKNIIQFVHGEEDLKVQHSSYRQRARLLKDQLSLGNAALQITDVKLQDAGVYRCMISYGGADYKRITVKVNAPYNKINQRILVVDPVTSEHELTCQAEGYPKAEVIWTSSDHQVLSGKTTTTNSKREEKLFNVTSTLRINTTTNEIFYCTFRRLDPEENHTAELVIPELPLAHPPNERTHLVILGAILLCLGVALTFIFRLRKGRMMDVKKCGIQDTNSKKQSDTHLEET
test-method-notes: PD-1/PD-L1 NFAT reporter co-culture assay
Format: cell-based
experimental-context: Jurkat PD-1 NFAT-luciferase cells co-cultured with aAPC-PD-L1 CHO cells, 6 hrs at 37° C.; read-out: EC50 NFAT Luciferase
property-name: EC50 (nM)

Completed entries (count: 2):
COc1cc(-c2cccc(-c3cccc(-c4cnc(C5=NCCN5)c(OC)c4)c3Cl)c2Cl)cnc1CNC[C@@H](O)CC(=O)O
251
Cc1c(COc2nc(OCc3cncc(C#N)c3)c(CNC[C@@H](O)CC(=O)O)cc2Cl)cccc1-c1cccc(COc2nc(OCc3cncc(C#N)c3)c(CNC[C@@H](O)CC(=O)O)cc2Cl)c1C
195

1. Cc1c(COc2cc(OCc3cncc(C#N)c3)c(CN[C@@](C)(CO)C(=O)O)cc2Cl)cccc1-c1cccc(-c2ccc3c(c2)CC(N)C3)c1C (stereo partly shown)
2. COc1nc(O[C@H]2CCc3c(-c4cccc(-c5nc6cc(CNCCO)ccn6n5)c4Cl)cccc32)c(Cl)cc1CNCCO
Incoming: // max by EC50 over [ 1 , 2 ] // respond with label for picked entry
Outgoing: 2
(2: 429 nM, 1: 158 nM)

###

experimental-system: PD-1/PD-L1 interaction (Homo sapiens, UniProt Q9NZQ7)
Construct: expressed in transfected cells; host or cells: CHO cells (aAPC-PD-L1) co-cultured with Jurkat cells overexpressing PD-1 and an NFAT-luciferase reporter
test-method-notes: PD-1/PD-L1 NFAT reporter co-culture assay
Assay type: cell-based
experimental-context: Jurkat PD-1 NFAT-luciferase cells co-cultured with aAPC-PD-L1 CHO cells, 6 hrs at 37° C.; read-out: EC50 NFAT Luciferase
property-name: EC50 (µM)

COc1nc(/C=C/c2cccc(-c3cccc(/C=C/c4nc(OC)c(CNC[C@@H](O)CC(=O)O)cc4Cl)c3C)c2C)c(Cl)cc1CNC[C@@H](O)CC(=O)O
1.12
COc1nc(O[C@H]2CCc3c(-c4cccc5c4CC[C@@H]5Oc4ccc(CNC[C@@H](O)CC(=O)O)c(OCc5cncc(C#N)c5)n4)cccc32)c(Br)cc1CNC[C@@H](O)CC(=O)O
0.264

A. Cc1c(COc2cc(OCc3cncc(C#N)c3)c(CN[C@@](C)(CO)C(=O)O)cc2Cl)cccc1-c1cccc(-c2ccc(CNCCn3ccnn3)cc2)c1C
B. Cc1c(COc2cc(OCc3cncc(C#N)c3)c(CNC[C@@H](O)CC(=O)O)cc2Cl)cccc1-c1cccc(-c2ccc(OCCNC[C@@H](O)CC(=O)O)c([N+](=O)[O-])c2)c1C
C. Cc1c(COc2cc(OCc3cncc(C#N)c3)c(CNCc3nnn[nH]3)cc2Cl)cccc1-c1cccc(COc2cc(OCc3cncc(C#N)c3)c(CNCc3nnn[nH]3)cc2Cl)c1C
D. Cc1c(COc2cc(OCc3cccc(C#N)c3)c(CNCCO)cc2Cl)cccc1-c1cccc(COc2cc(OCc3cccc(C#N)c3)c(CNCCO)cc2Cl)c1C
E. COc1nc(O[C@H]2CCc3c(-c4cccc(-c5cnc6c(CN7CC8(CNC(=O)C8)C7)cn(C)c6n5)c4Cl)cccc32)c(Cl)cc1CN1CCC[C@@H](C(=O)O)C1
Incoming: Ranking field: EC50; order: falling. Give the order by naming the labels one after another as requested.
Outgoing: D, C, A, B, E

a. C[C@@](CO)(NCc1ccc(O[C@H]2CCc3c(-c4cccc(OCCCN5CC[C@@H](O)C5)c4Cl)cccc32)nc1OCc1cncc(C#N)c1)C(=O)O
b. Cc1c(COc2ccc(CNC[C@@H](O)CC(=O)O)c(OCc3cncc(C#N)c3)n2)cccc1-c1cccc(COc2ccc(CNC[C@@H](O)CC(=O)O)c(=O)n2Cc2cncc(C#N)c2)c1C
c. Cc1c(COc2nc(OC[C@@H]3CCC(=O)N3)c(CNC[C@@H](O)CC(=O)O)cc2Br)cccc1-c1cccc(COc2nc(OC[C@@H]3CCC(=O)N3)c(CNC[C@@H](O)CC(=O)O)cc2Br)c1C
Incoming: Ranking field: EC50; order: falling. Give the order by naming the labels one after another as requested.
Outgoing: b, a, c

###

experimental-system: PD-1/PD-L1 interaction (Homo sapiens)
Construct: expressed in transfected cells; host or cells: CHO cells (aAPC-PD-L1) co-cultured with Jurkat cells overexpressing PD-1 and an NFAT-luciferase reporter
test-method-notes: PD-1/PD-L1 NFAT reporter co-culture assay
Assay type: cell-based
experimental-context: Jurkat PD-1 NFAT-luciferase cells co-cultured with aAPC-PD-L1 CHO cells, 6 hrs at 37° C.; read-out: EC50 NFAT Luciferase
pEC50: −log10 of the molar value.
property-name: pEC50

Cc1c(COc2cc(OCc3cncc(C#N)c3)c(CNC[C@@H](O)CC(=O)O)cc2Cl)cccc1-c1cccc(-c2ccc(OCCN3CC4(CCC(=O)N4)C3)cc2)c1C [Example 519]
6.90
COc1nc(OCc2cccc(-c3cccc(COc4ccc(CNC[C@@H](O)CC(=O)O)c(OC)n4)c3F)c2C)ccc1CNC[C@@H](O)CC(=O)O [Example 285]
5.01
COc1nc(-c2cccc(-c3cccc4c3CC[C@@H]4Oc3nc(OCc4cncc(C#N)c4)c(CN[C@@](C)(CO)C(=O)O)cc3Br)c2Br)ccc1CNC[C@@H]1CCC(=O)N1 [Example 699]
6.87
COc1nc(-c2cccc(-c3cccc(COc4nc(OCc5cncc(C#N)c5)c(CNC[C@@H]5CCC(=O)N5)cc4Br)c3Cl)c2Cl)ccc1C1=NCCN1 [Example 556]
7.07
COc1nc(-c2cccc(-c3cccc(COc4cc(OCc5cncc(C#N)c5)c(CNC[C@@H](O)CC(=O)O)cc4Cl)c3C)c2C)ccc1C1=NCCN1 [Example 505]
7.10
COc1nc(O[C@H]2CCc3c(-c4cccc(-c5cnc(CN[C@@H]6CCC[C@@H]6O)c(OC)n5)c4Cl)cccc32)c(Cl)cc1CNC[C@@H]1CCC(=O)N1 [Example 647]
6.63

P. COc1nc(-c2cccc(-c3cccc(COc4nc(OCc5cncc(C#N)c5)c(CN[C@@](C)(CO)C(=O)O)cc4Br)c3Cl)c2Cl)ccc1C1=NCCN1 [Example 559]
Q. Cc1c(COc2cc(OCc3cncc(C#N)c3)c(CNC[C@@H](O)CC(=O)O)cc2Cl)cccc1-c1cccc(OCc2cc(OCc3cncc(C#N)c3)c(CNC[C@@H](O)CC(=O)O)cc2Cl)c1C [Example 390]
R. Cn1cc(CN2CC3(CCC(=O)N3)C2)c2ccc(-c3cccc(-c4cccc(-c5ccc6c(CN7CC8(CCC(=O)N8)C7)cn(C)c6n5)c4Cl)c3Cl)nc21 [Example 476]
S. COc1nc(OCc2cccc(-c3cccc(COc4cc(OCc5cncc(C#N)c5)c(CNC[C@@H](O)CC(=O)O)cc4Cl)c3C)c2C)ccc1CNC[C@@H](O)CC(=O)O [Example 203]
T. Cc1c(COc2cc(OCc3cncc(C#N)c3)c(CN[C@@](C)(CO)C(=O)O)cc2Cl)cccc1-c1cccc(-c2ncc(CN3CC[C@@H](O)C3)cn2)c1C [Example 455]
Incoming: Ranking field: pEC50; order: falling. Give the order by naming the labels one after another as requested.
Outgoing: P, Q, R, S, T
